Consider the following molecules; for each one, report its activation.
Biological target: Kappa-type opioid receptor (Homo sapiens) (UniProt P41145)
Sequence (P41145 whole entry, looked up): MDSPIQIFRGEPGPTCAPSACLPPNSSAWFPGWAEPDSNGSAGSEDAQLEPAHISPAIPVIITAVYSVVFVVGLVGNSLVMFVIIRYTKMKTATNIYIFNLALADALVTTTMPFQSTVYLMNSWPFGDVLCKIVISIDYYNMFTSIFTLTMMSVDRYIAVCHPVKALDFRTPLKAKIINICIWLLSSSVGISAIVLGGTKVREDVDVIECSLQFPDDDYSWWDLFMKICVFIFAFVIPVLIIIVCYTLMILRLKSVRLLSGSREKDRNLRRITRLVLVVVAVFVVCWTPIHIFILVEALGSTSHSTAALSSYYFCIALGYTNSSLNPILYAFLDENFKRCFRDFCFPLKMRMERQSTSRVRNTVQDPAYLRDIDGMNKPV
Assay: KOR agonists, beta-arrestin recruitment, primary screen, cell-based, luminescence, uHTS (AID 1777)
Conditions: at 10 µM, stronger effect = higher value
Among all 280,000 compounds or so, about 50 (0.02%) were called active. For the sample, actives were picked, then their nearest neighbours and some compounds at random. Potency and affinity values are given separately.
Note: unit % is implicit; provide only the numeric part.

Respond only with activation recorded for COc1ccc(NC2=NCCCCC2)cc1
-4.3

Respond only with activation recorded for CCC(C)(C(=O)NC1CCCCC1)N(C)C(=O)c1ccccn1 (stereo unspecified)
1.2

Respond only with activation recorded for Cc1cc(C)c2cc(CN(Cc3ccc4c(c3)OCO4)Cc3nnnn3Cc3ccco3)c(=O)[nH]c2c1
83.5

Respond only with activation recorded for Cc1ccccc1NC(=S)N(Cc1cccs1)C1CCCC1
4.8

Respond only with activation recorded for Cc1ccc2cc(CN(Cc3ccc4c(c3)OCO4)Cc3nnnn3Cc3ccco3)c(=O)[nH]c2c1
26.7

Respond only with activation recorded for Cn1c(=O)oc2cc(S(=O)(=O)N3CCN(c4ccc(F)cc4)CC3)ccc21
-1.1

Respond only with activation recorded for CCC(C)(C(=O)NC1CCCCC1)N(Cc1ccco1)C(=O)CNC(=O)c1ccccc1 (stereo unspecified)
1.6

Respond only with activation recorded for COc1cc(/C=N/Nc2ccc(C(F)(F)F)cn2)cc(OC)c1O
-5

Respond only with activation recorded for Cc1cccc(C)c1NC(=O)C1(N(C(=O)c2ccccn2)c2ccc(O)cc2)CCCCC1
-0.3

Respond only with activation recorded for O=C(c1ccc(S(=O)(=O)N2CCCC2)cc1)N1CCC(CN2C(=O)c3cccc4cccc(c34)C2=O)CC1
0.7

Respond only with activation recorded for N#Cc1ccc(-c2ccc(F)cc2)nc1SCC(=O)Nc1sc2c(c1C#N)CCC2
-1

Respond only with activation recorded for CCCNC(=O)NC(=O)CSc1nnc(-c2ccncc2)n1CC
-1.1

Respond only with activation recorded for CCC(C)(C(=O)NC1CCCCC1)N(Cc1ccco1)C(=O)c1ccc2c(c1)OCO2 (stereo unspecified)
1.2

Respond only with activation recorded for CCC(C)(C(=O)NC1CCCC1)N(Cc1cccs1)C(C)=O (stereo unspecified)
-2.2

Respond only with activation recorded for Cc1ccccc1NC(=S)N(Cc1cccs1)C1CCCCC1
-6.5

Respond only with activation recorded for CCCC(=O)NC(c1ccc(Cl)cc1Cl)c1ccc2cccnc2c1O (stereo unspecified)
-5.3

Respond only with activation recorded for COc1ccc(-c2ccc(C#N)c(SCC(=O)Nc3sc4c(c3C#N)CCC4)n2)cc1
-2.3

Respond only with activation recorded for CCC(C)(C(=O)NC1CCCCC1)N(Cc1cccs1)C(=O)c1ccc(=O)[nH]c1 (stereo unspecified)
-6.4

Respond only with activation recorded for CCC(C)(C(=O)NC1CCCC1)N(Cc1ccco1)C(=O)c1ccc2c(c1)OCO2 (stereo unspecified)
10.3

Respond only with activation recorded for O=C(c1ccc(=O)[nH]c1)N(Cc1ccco1)C1(C(=O)NC2CCCCC2)CCCCC1
-2.7

Respond only with activation recorded for COc1cc(OC)cc(C(=O)NCC(=O)N2CCCCC2)c1
-0.7
